- subject_of_test: HiBiT-tagged nsp3-mac1 in HEK293 cells (Severe acute respiratory syndrome coronavirus 2, UniProt P0DTD1)
- run_description: HiBiT Cellular Thermal Shift Assay / isothermal dose response thermal shift assay (ITDRF CETSA)
- measurement_conditions: fixed temperature 50.6°C
quantity_kind: EC50 (nM)
Use nM as the unit, but write only the number.

Using the record for Cc1nn(C)cc1-c1cc2c(NC(c3ccc4c(c3)S(=O)(=O)CCC4)C(C)C)ncnc2[nH]1 (stereo not shown) [ASAP-0011446] , state its measured EC50.
14

====

Parameter t_half: see the listing below.
- run_description: Hepatic microsomal stability, HLM
- Format: in vitro ADME, human
- measurement_conditions: In vitro human liver microsomal stability
Write the numeric value and append its unit.

In one line, give reported t_half of the entry CC(C)[C@@H](Nc1ncnc2[nH]c(-c3cnn(CC(=O)N(C)C)c3)cc12)c1ccc2c(c1)S(=O)(=O)CCC2 (racemic) [ASAP-0008668] .
15.8 min

Find the measured t_half of CNCc1cc(-c2cc3c(N[C@@H](c4ccc5c(c4)S(=O)(=O)CCC5)C(C)C)ncnc3[nH]2)co1 [ASAP-0010745] and report it.
29.4 min

---
Identify t_half associated with the compound CCNC(=O)c1cc2c(N[C@@H](c3ccc4c(c3)S(=O)(=O)CCO4)C(C)C)ncnc2[nH]1 (racemic) [ASAP-0012317]
26.2 min

Assign t_half to the following record: CC(C)[C@H](Nc1ncnc2[nH]c(-c3cnn(CC(N)=O)c3)cc12)c1ccc2c(c1)OCCO2 [ASAP-0008449]
35.4 min

Entry CC(C)[C@H](Nc1ncnc2[nH]c(-c3cnn(CC(N)=O)c3)cc12)c1ccc2c(n1)OCCO2 [ASAP-0012307] needs its t_half filled in; supply it.
134.5 min

Please give measured t_half of the following entry: CC(C)[C@@H](Nc1ncnc2[nH]c(-c3cnn(CC(N)=O)c3)cc12)c1ccc2c(c1)OCCO2 [ASAP-0008288]
16.9 min

Supply measured t_half of CC(C)[C@H](Nc1ncnc2[nH]c(-c3cnn(C)c3C#N)cc12)c1ccc2c(c1)S(=O)(=O)CCC2 (single isomer, unassigned) [ASAP-0011144] in your reply.
1.8 min
